# target desc: T1, IL-2 receptor βγ complex (human, UniProt P14784 27-551; P31785 23-369)
# T1 sequence (looked up) 1: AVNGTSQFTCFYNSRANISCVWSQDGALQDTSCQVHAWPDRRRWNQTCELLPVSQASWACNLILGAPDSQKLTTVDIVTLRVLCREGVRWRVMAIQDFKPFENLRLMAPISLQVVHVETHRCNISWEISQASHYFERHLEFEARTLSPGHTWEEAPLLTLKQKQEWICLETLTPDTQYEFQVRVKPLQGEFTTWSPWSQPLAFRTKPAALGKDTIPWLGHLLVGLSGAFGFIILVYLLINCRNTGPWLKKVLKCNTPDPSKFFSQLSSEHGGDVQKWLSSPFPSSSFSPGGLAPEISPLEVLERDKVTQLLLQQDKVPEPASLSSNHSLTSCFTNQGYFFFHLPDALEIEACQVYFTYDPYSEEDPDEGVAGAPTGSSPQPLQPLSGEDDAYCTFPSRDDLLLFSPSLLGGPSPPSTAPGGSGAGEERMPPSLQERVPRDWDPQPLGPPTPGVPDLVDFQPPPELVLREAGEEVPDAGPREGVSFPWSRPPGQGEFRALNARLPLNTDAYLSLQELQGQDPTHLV
# T1 sequence (looked up) 2: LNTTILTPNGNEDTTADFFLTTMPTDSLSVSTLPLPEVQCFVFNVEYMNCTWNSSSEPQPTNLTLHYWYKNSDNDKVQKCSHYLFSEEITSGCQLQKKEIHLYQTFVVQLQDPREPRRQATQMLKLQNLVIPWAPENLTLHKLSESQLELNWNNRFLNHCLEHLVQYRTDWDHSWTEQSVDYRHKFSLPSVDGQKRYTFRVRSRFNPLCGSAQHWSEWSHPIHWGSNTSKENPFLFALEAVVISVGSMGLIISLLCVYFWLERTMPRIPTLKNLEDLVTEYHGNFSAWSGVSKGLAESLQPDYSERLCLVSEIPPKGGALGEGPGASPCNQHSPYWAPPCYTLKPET
# assay comment: cell-based or functional assay
Bridges are numbered along the chain shown (N, C = ends). Primed or numbered codes have the meaning given here. [ ]: non-standard residue; d: D form. Ygp(4) = Tyr with amino-capped PEG8 (O-(8x polyethylene glycol-amino)-tyrosine); Yn3(4) = Tyr with azide-capped PEG9 (O-(9x polyethylene glycol-azido)-tyrosine); Ygp″ = O-(8x polyethylene glycol-amino)-tyrosine; Yn3″ = O-(9x polyethylene glycol-azido)-tyrosine; hSer = N[C@@H](CCO)C(=O)O; Nle = CCCC[C@H](N)C(=O)O
measured parameter: Average EC50, pSTAT5 Assay (T cells) (nM)
The reply should be a number in nM, with the unit left off.

Study these solved cases before continuing.
# return recorded Average EC50, pSTAT5 Assay (T cells) for input CMP-159, MMP2 cleaved molecule (ligand, not fully specified (bridges); ends and bridges not checked; also: MMP2 cleaved, site not given here) PLGLAGAPTSSSTKKTQLQLEHLLLDLE[Nle]ILNGINNYKNPKLTR[Nle]L[hSer][Yn3(4)]KF[Ygp(4)][Nle]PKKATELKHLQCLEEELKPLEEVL[hSer]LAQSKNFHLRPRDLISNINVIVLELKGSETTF[hSer]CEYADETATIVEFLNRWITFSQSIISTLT
2.27

# return recorded Average EC50, pSTAT5 Assay (T cells) for input CMP-160, MMP2 cleaved molecule (ligand, not fully specified; ends and bridges not checked; also: MMP2 cleaved, cleavage site and linker fragments on N-terminus and Glu26 side chain not given here) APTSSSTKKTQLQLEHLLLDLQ[Nle]ILEGINNYKNPKLTR[Nle]L[hSer][Yn3(4)]KF[Ygp(4)][Nle]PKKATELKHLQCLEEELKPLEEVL[hSer]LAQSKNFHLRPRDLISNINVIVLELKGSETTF[hSer]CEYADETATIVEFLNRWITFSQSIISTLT
2.21

Now consider a different binder.
# return recorded Average EC50, pSTAT5 Assay (T cells) for input CMP-155 (ligand, linker N-29 via GPLGLAG‑PEG9) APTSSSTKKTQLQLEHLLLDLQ[Nle]ILNGIENYKNPKLTR[Nle]L[hSer][Yn3″]KF[Ygp″][Nle]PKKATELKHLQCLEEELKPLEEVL[hSer]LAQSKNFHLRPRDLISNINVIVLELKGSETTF[hSer]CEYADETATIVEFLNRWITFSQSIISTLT
10.7

Data provenance: patent US20240376170A1
